# measured on: Aurora A (Homo sapiens)
# Construct: cell lysates from Jurkat cells (ATCC TIB-152) used; endogenous in cells; host or cells: Jurkat cells (ATCC TIB-152), treated with pervanadate
# Sequence (O14965 1-403): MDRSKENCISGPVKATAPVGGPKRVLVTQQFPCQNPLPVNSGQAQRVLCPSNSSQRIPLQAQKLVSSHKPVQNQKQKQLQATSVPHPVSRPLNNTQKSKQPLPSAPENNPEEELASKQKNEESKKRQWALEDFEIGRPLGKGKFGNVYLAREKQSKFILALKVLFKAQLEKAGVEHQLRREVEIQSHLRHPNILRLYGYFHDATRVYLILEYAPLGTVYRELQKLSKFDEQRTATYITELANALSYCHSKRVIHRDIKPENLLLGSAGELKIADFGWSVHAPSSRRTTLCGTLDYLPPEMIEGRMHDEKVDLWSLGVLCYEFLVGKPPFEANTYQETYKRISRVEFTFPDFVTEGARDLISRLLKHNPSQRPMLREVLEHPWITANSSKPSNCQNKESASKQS
# measurement protocol: Kinobeads assay, Aurora A
# Type: binding
metric: JAK3/AurA Fold Selectivity

Please review the entries below; each comes with its answer.
1) Cn1cc(Nc2ncc3cnn(Cc4c(F)ccc(N5CCOCC5)c4F)c3n2)cn1 ... 10-50 Fold
2) Cn1cc(Nc2ncc3cnn(Cc4cccc(N5CCOCC5)c4Cl)c3n2)cn1 ... 3-10 Fold
3) NCCCn1cc(Nc2ncc3cnn(Cc4cccc(N5CCOCC5)c4)c3n2)cn1 ... 10-50 Fold
4) Cn1cc(Nc2ncc3cnn(Cc4c(F)c(F)cc(N5CCOCC5)c4F)c3n2)cn1 ... >50 Fold
5) O=C1COCCN1c1cc(F)c(F)c(Cn2ncc3cnc(Nc4cnn(CCO)c4)nc32)c1 ... 10-50 Fold

## Input Lab note: record JAK3/AurA Fold Selectivity of O=C1CNCCN1c1cc(F)cc(Cn2ncc3cnc(Nc4cnn(CCO)c4)nc32)c1 tested on Aurora A (Homo sapiens).
## Output 10-50 Fold

## Input Specify JAK3/AurA Fold Selectivity for Cn1cc(Nc2ncc3cnn(Cc4c(F)c(F)cc(C(=O)N5CCOCC5)c4F)c3n2)cn1 , system Aurora A (Homo sapiens).
## Output >50 Fold

## Input Supply JAK3/AurA Fold Selectivity measured with Aurora A (Homo sapiens) for Cn1cc(Nc2ncc3cnn(Cc4cc(C(=O)N5CCOCC5)cc(F)c4F)c3n2)cn1 .
## Output 3-10 Fold

Entry source: patent US9040545B2
